- Subject Of Test: ryanodine receptor (RyR) / Ca2+-release channel (Oryctolagus cuniculus, UniProt P11716)
- Construct: from tissue; host or cells: rabbit fast twitch skeletal muscle SR membranes
- Sequence (P11716 whole entry): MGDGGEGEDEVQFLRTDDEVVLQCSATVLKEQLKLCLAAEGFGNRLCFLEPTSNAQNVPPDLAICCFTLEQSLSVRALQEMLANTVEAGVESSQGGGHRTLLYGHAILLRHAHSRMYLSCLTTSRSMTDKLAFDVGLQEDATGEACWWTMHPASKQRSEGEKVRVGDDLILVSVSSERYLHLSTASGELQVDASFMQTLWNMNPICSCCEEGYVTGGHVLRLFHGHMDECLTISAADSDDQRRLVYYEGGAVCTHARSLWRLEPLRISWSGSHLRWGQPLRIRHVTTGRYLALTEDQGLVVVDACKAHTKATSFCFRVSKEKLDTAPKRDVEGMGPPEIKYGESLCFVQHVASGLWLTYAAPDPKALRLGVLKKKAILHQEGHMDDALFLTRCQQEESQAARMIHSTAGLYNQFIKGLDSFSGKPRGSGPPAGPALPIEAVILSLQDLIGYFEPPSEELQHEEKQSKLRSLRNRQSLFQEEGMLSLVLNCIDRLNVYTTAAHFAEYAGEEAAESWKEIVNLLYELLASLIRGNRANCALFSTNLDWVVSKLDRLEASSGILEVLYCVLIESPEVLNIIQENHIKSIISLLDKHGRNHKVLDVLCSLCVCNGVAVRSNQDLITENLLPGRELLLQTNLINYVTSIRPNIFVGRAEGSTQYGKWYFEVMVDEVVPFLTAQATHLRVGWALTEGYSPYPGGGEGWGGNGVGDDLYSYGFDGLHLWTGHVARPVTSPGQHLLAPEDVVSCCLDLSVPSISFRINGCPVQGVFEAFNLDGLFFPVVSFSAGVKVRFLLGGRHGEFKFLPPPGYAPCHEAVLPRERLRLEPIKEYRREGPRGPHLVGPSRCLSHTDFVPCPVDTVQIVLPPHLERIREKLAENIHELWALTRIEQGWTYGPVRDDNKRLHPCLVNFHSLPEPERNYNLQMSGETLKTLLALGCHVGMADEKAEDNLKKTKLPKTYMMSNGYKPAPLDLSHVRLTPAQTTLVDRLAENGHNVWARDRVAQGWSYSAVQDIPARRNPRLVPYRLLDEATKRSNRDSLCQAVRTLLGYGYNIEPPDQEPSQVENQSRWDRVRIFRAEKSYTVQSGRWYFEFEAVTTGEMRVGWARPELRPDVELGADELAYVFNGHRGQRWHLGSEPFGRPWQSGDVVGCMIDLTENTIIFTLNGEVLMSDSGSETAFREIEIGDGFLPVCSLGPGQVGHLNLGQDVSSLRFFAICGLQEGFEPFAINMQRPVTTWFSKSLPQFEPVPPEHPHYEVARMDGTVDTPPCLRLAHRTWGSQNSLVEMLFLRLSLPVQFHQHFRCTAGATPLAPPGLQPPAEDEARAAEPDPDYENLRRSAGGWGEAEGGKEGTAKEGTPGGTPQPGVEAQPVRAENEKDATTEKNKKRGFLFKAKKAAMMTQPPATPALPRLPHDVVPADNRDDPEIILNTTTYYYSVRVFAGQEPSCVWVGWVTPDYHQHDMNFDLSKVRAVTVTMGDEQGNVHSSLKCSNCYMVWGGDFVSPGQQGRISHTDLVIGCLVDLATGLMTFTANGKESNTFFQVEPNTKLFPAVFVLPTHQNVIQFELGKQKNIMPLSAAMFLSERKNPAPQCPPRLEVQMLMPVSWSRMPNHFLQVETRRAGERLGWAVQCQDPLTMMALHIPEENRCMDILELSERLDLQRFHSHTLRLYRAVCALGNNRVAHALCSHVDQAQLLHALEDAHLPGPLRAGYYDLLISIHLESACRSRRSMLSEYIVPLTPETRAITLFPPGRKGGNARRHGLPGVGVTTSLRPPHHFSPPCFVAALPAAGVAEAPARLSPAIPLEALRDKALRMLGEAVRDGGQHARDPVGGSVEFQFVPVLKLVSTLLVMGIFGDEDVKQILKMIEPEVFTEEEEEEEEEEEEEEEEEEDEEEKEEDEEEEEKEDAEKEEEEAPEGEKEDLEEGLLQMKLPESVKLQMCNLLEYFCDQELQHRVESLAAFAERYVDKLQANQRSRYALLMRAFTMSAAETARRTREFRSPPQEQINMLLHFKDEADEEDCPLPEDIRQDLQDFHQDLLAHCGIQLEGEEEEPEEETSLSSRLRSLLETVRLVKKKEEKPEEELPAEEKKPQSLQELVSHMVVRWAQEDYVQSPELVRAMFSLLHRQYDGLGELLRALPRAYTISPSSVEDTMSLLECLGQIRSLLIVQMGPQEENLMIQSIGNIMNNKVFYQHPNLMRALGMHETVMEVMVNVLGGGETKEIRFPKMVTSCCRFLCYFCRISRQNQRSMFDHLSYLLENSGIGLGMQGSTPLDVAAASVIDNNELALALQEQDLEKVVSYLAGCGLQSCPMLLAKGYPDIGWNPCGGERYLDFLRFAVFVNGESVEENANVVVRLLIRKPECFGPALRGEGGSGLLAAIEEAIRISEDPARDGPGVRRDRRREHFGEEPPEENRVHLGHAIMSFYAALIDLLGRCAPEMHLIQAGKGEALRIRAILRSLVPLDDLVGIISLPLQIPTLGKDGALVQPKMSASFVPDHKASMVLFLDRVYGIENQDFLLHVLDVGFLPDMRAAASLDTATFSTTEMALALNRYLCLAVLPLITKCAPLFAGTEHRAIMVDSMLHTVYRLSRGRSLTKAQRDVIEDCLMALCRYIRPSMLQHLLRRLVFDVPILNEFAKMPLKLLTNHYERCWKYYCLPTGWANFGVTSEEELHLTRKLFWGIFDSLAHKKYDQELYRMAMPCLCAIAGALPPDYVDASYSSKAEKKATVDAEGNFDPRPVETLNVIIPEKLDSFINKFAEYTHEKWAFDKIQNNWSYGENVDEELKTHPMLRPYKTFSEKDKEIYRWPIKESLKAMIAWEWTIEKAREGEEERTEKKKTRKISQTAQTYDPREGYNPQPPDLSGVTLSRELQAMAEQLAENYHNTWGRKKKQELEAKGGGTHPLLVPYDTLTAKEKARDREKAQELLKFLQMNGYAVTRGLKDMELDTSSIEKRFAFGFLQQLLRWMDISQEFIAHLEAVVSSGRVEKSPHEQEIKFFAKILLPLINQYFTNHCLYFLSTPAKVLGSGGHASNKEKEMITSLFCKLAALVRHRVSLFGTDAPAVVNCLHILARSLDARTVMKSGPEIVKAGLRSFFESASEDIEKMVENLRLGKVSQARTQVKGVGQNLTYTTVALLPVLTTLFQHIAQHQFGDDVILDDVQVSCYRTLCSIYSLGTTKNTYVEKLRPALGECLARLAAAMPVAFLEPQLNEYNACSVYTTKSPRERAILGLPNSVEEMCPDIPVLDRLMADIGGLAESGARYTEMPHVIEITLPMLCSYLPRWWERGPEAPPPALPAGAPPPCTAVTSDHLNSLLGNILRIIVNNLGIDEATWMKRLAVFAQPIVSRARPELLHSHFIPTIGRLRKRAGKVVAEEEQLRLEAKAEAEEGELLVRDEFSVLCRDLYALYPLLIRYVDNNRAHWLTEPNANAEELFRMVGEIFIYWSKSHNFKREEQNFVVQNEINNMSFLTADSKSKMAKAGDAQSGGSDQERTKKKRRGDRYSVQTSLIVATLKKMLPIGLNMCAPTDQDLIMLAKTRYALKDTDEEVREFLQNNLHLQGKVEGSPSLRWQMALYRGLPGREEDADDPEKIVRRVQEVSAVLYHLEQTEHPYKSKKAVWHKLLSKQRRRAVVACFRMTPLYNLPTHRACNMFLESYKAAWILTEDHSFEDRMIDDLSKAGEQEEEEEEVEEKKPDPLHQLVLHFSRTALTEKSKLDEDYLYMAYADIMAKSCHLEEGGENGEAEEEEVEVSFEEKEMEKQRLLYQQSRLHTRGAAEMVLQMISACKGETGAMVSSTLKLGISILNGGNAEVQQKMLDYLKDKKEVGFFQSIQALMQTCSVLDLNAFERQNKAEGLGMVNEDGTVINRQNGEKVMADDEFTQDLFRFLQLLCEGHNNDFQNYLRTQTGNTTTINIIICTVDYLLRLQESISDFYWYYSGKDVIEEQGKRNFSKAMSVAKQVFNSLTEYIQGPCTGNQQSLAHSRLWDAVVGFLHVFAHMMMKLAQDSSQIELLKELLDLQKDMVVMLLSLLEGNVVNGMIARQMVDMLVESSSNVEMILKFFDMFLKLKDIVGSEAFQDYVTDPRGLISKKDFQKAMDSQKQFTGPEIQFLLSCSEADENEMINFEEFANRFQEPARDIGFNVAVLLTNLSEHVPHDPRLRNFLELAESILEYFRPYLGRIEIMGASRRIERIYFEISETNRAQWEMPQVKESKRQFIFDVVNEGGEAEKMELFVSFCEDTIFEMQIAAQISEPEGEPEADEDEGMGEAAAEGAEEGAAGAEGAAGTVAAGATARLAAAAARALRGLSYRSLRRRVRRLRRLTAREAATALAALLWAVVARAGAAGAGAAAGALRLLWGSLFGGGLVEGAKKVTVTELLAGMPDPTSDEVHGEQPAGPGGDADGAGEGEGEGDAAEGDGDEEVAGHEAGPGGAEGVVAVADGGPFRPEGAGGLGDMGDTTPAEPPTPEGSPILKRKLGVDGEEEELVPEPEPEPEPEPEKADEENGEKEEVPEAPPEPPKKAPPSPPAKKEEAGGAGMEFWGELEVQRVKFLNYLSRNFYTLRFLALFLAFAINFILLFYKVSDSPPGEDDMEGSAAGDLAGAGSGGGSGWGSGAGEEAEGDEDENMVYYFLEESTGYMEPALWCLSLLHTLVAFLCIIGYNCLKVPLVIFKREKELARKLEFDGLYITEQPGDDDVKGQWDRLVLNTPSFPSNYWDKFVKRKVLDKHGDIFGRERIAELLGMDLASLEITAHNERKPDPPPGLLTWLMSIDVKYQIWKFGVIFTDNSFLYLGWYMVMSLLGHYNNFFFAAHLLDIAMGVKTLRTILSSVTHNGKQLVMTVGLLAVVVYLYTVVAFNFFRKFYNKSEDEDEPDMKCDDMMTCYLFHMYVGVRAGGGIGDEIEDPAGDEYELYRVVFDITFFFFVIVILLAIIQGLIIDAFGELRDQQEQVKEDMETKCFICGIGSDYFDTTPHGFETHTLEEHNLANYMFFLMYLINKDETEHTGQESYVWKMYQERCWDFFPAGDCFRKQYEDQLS
- Procedure Text: [3H]ryanodine binding to SR membranes
- Parameters: species or system rabbit
- Test Settings: no UV; mean ± SEM of 3 to 5 experiments
pIC50: −log10 of the molar value.
Experimental Readout: pIC50

>>> reading("Cl.Cl.Cl.Cl.Cl.Cl.N.N.N.N.N.N.N.N.N.N.N.N.N.N.[O-2].[O-2].[Ru+3].[Ru+3].[Ru+4] [RuR, ruthenium red, reference compound]")
5.14
